- assayed_system: IGF-1R (Homo sapiens, UniProt P08069)
- Construct: purchased Upstate Co. 14-465
- Sequence (P08069 959-1367 limits assumed): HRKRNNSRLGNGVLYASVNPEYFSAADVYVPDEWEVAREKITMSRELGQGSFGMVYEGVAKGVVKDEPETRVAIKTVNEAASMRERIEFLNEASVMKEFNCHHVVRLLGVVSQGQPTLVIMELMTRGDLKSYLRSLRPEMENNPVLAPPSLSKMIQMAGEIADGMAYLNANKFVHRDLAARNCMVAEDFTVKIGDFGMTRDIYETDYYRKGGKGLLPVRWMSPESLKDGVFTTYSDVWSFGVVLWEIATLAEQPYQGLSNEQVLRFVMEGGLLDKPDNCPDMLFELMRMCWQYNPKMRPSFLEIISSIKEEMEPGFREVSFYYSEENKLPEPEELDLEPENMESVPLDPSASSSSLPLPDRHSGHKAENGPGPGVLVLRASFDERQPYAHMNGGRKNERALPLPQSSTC
- test_name: IGF-1R inhibitory activity (kinase reaction, time-resolved fluoroimmunoassay)
- Assay type: biochemical
- experimental_context: IGF-1R active recombinant enzyme, test compound 10 μmol/L
Catalogue of inhibition at 10 µM readings, one per entry.
recorded_endpoint: inhibition at 10 µM

> print(dat)
                                   compound  assay.result
1  Cc1ccsc1C(=O)Nc1cc(CN2CC[C@@H](N)C2)ccc1/C=C/c1n[nH]c2ccccc12          106%
2  Cc1ccsc1C(=O)Nc1cc(CN2CCC(N(C)C)C2)ccc1/C=C/c1n[nH]c2ccccc12 (stereo not shown)         98.2%
3  CC(C)C(=O)Nc1ccc(C(=O)Nc2ccccc2/C=C/c2n[nH]c3ccccc23)s1         95.7%
4  O=C(Nc1cc(C(=O)N2CCN(CCO)CC2)ccc1/C=C/c1n[nH]c2ccccc12)c1cccs1         93.5%
